Each recorded value in this set is attributed to PubChem BioAssay.

experiment: endothelial E-selectin expression blockers – imaging, HUVEC, immunofluorescence, MLSMR starter and 10KST1 sets, primary screen (AID 487); conditions: HUVEC TNFalpha-induced E-selectin immunofluorescence imaging, at 2 µM; measured here: cell number, toxicity;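 note: 100% = median nuclei count of all wells on the same plate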
For each of the compounds below, state its nuclei count.
// note: answer is a bare numeric in %

# nuclei count lookup, item CC(=O)c1cccc(S(=O)(=O)NCC(c2ccco2)N2CCCCC2)c1 (centres undefined) 145

// next record Cc1cc(C)nc(N(C#N)CC(=O)N2CCC(C(N)=O)CC2)n1 98.4

// next record COc1ccc(NC(=O)CN2CCCCC2)cc1 121

// next record COCCNC(=O)CN1C(=O)CSc2ncccc21 117

// next record Cc1cc(C(F)(F)F)nc(SCC(=O)NC2=NC(=O)C(C)S2)n1 (centres undefined) 99

// next record CC(=O)NC(CCS(C)(=O)=O)C(=O)Nc1cccc(C)c1 (centres undefined) 95.7

// next record Cc1ccc(-n2c3c(cc(C(=O)NCCCN4CCOCC4)c2=O)C(=O)CC(C)(C)C3)cc1 117

// next record COC(C)(C)c1cc(C(C)(C)C)nc(N)n1 129

// next record CC(=O)Nc1ccc2c(c1)nc(CCNC(=O)c1ccccc1)n2C 170

// next record CC(C)CNC(=O)c1ccccc1NC(=O)c1ccc(CN2CCOCC2)cc1 111

// next record CCN(CC)c1ccc(NC(=O)CN2C(=O)CC(C)(C)S(=O)(=O)c3ccccc32)c(C)c1 125

// next record Cc1cccc2sc(NC(=O)Cn3cccc3)nc12 100

// next record CC1(C)COCN1S(=O)(=O)c1ccc(C(=O)Nc2nnc(-c3ccc(Cl)s3)o2)cc1 93.8

// next record CCOC(=O)CN1C(=O)C2(OCCCO2)c2ccccc21 96.5

// next record COc1ccc(N2C(=O)CC(N3CCN(c4ccccc4F)CC3)C2=O)cc1 (centres undefined) 84.3

// next record Cc1cc(C)n(-c2ccc(C(=O)Nc3ccc4c(c3)OCCO4)cc2)n1 110

// next record CCOC(=O)C1CCN(C(=O)COc2ccc(S(=O)(=O)NC(C)C)cc2Cl)CC1 97.5

// next record CC(C)(O)C#Cc1ccc(C(=O)N2CCN(C(=O)c3ccco3)CC2)cc1 133

// next record Cc1c(C)n(C)c2ccc(C(=O)NCc3cccs3)cc12 93.5

// next record Cc1cc(C)nc(NC(=O)c2c(-c3c(Cl)cccc3Cl)noc2C)n1 109

// next record OC(COc1ccccc1)CN1C2=NCCCN2c2ccccc21 (centres undefined) 79.2

// next record CCCS(=O)(=O)N1CCN(Cc2ccc(OCc3ccccc3)c(OC)c2)CC1 101

// next record COc1ccccc1N1CC(C(=O)Nc2cccc(C(=O)O)c2)CC1=O (centres undefined) 127

// next record Cc1nc2c(-c3ccccc3)c(C)nn2c(C)c1CCC(=O)NCc1ccco1 102
